Where do the numbers come from? From ChEMBL document CHEMBL1155161.

target: Human immunodeficiency virus type 1 reverse transcriptase (Human immunodeficiency virus 1); test: Inhibition of HIV1 reverse transcriptase assessed as dCTP level required to form 80% of binary enzyme complex formation with drug-terminated primer in posttranslocation state by site-specific foot printing assay
I'd appreciate it if you could supply Activity values for the items below.
Answers are plain numbers, in µM.

| molecule | units-label | Activity |
| --- | --- | --- |
| [N-]=[N+]=N[C@H]1C[C@H](n2cnc3c(N)ncnc32)O[C@@H]1COP(=O)(O)O | µM | 100 |
| Cc1cn([C@H]2C[C@H](N=[N+]=[N-])[C@@H](COP(=O)(O)O)O2)c(=O)[nH]c1=O [AZIDOTHYMIDINE MONOPHOSPHATE] | µM | 31 |
| C[C@H](Cn1cnc2c(N)ncnc21)OCP(=O)(O)O [TENOFOVIR ANHYDROUS] | µM | 3 |

Now look at this entry.
Task item: Give Human immunodeficiency virus type 1 reverse transcriptase (Human immunodeficiency virus 1) Activity for the following molecule: Nc1ncnc2c1ncn2[C@H]1CC[C@@H](COP(=O)(O)O)O1
Reply: 0.2

* * *

test system: Human immunodeficiency virus 1; assay: Ratio of Ki/Km for HIV1 reverse transcriptase M41L/D67N/L210W/T215Y mutant to Ki/Km for wild-type reverse transcriptase
measured-attribute: Ratio
Give bare numbers.

Consider the worked cases shown below.
| molecule | Ratio |
| --- | --- |
| Cc1cn([C@H]2C[C@H](N=[N+]=[N-])[C@@H](COP(=O)(O)OP(=O)(O)OP(=O)(O)O)O2)c(=O)[nH]c1=O | 1 |
| C[C@H](Cn1cnc2c(N)ncnc21)OCP(=O)(O)OP(=O)(O)O | 0.4 |
| Nc1ncnc2c1ncn2[C@H]1CC[C@@H](COP(=O)(O)OP(=O)(O)OP(=O)(O)O)O1 [DDA-TRIPHOSPHATE] | 0.5 |
| [N-]=[N+]=N[C@H]1C[C@H](n2cnc3c(N)ncnc32)O[C@@H]1COP(=O)(O)OP(=O)(O)OP(=O)(O)OP(=O)(O)O | 0.5 |

Now look at this entry.
Task item: Specify measured Ratio for C[C@H](Cn1cnc2c(N)ncnc21)OCP(=O)(O)O [TENOFOVIR ANHYDROUS] .
Reply: 0.4

* * *

I'd appreciate it if you could supply Ki values for the items below.
target: Human immunodeficiency virus type 1 reverse transcriptase (Human immunodeficiency virus 1, UniProt Q72547)
Give bare numbers, in µM.

Consider the worked cases shown below.
| compound | measured-attribute | recorded-measurement |
| --- | --- | --- |
| Nc1ncnc2c1ncn2[C@H]1CC[C@@H](COP(=O)(O)OP(=O)(O)OP(=O)(O)O)O1 [DDA-TRIPHOSPHATE] | Ki | 0.09 |
| C[C@H](Cn1cnc2c(N)ncnc21)OCP(=O)(O)OP(=O)(O)O | Ki | 0.21 |
| [N-]=[N+]=N[C@H]1C[C@H](n2cnc3c(N)ncnc32)O[C@@H]1COP(=O)(O)OP(=O)(O)OP(=O)(O)OP(=O)(O)O | Ki | 0.23 |

Now look at this entry.
Task item: Specify measured Ki for Cc1cn([C@H]2C[C@H](N=[N+]=[N-])[C@@H](CO[P@](=O)(O)O[P@](=O)(O)OP(=O)(O)O)O2)c(=O)[nH]c1=O [ZIDOVUDINE TRIPHOSPHATE] .
Reply: 0.041

* * *

biological target: Human immunodeficiency virus type 1 reverse transcriptase (Human immunodeficiency virus 1) (UniProt Q72547); test: Ratio of Ki to Km for HIV1 reverse transcriptase by steady state nucleotide incorporation assay
I'd appreciate it if you could supply Ratio values for the items below.

Consider the worked cases shown below.
| compound | Ratio |
| --- | --- |
| [N-]=[N+]=N[C@H]1C[C@H](n2cnc3c(N)ncnc32)O[C@@H]1COP(=O)(O)OP(=O)(O)OP(=O)(O)OP(=O)(O)O | 0.51 |
| Cc1cn([C@H]2C[C@H](N=[N+]=[N-])[C@@H](COP(=O)(O)OP(=O)(O)OP(=O)(O)O)O2)c(=O)[nH]c1=O | 0.09 |
| C[C@H](Cn1cnc2c(N)ncnc21)OCP(=O)(O)OP(=O)(O)O | 0.47 |

Now look at this entry.
Task item: Specify measured Ratio for Nc1ncnc2c1ncn2[C@H]1CC[C@@H](COP(=O)(O)OP(=O)(O)OP(=O)(O)O)O1 [DDA-TRIPHOSPHATE] .
Reply: 0.2

* * *

tested on: Human immunodeficiency virus 1; test: Ratio of Ki for HIV1 reverse transcriptase M41L/D67N/L210W/T215Y mutant to Ki for wild-type reverse transcriptase
I'd appreciate it if you could supply Ratio Ki values for the items below.

Batch lookup, Ratio Ki per entry.
1. C[C@H](Cn1cnc2c(N)ncnc21)OCP(=O)(O)OP(=O)(O)O
2. Nc1ncnc2c1ncn2[C@H]1CC[C@@H](COP(=O)(O)OP(=O)(O)OP(=O)(O)O)O1 [DDA-TRIPHOSPHATE]
3. Cc1cn([C@H]2C[C@H](N=[N+]=[N-])[C@@H](COP(=O)(O)OP(=O)(O)OP(=O)(O)O)O2)c(=O)[nH]c1=O
4. [N-]=[N+]=N[C@H]1C[C@H](n2cnc3c(N)ncnc32)O[C@@H]1COP(=O)(O)OP(=O)(O)OP(=O)(O)OP(=O)(O)O

Reply:
[0.5, 0.6, 1.2, 0.65]

* * *

I'd appreciate it if you could supply Kd values for the items below.
biological target: Human immunodeficiency virus type 1 reverse transcriptase (Human immunodeficiency virus 1, UniProt Q72547); assay: Binding affinity to ternary complex of HIV1 reverse transcriptase with primer/template in presence of dCTP substrate

| molecule | Kd |
| --- | --- |
| C[C@H](Cn1cnc2c(N)ncnc21)OCP(=O)(O)O [TENOFOVIR ANHYDROUS] | 3.2 µM |
| Nc1ncnc2c1ncn2[C@H]1CC[C@@H](COP(=O)(O)O)O1 | 0.1 µM |

Now look at this entry.
Task item: Specify measured Kd for Cc1cn([C@H]2C[C@H](N=[N+]=[N-])[C@@H](COP(=O)(O)O)O2)c(=O)[nH]c1=O [AZIDOTHYMIDINE MONOPHOSPHATE] .
Reply: 24.9 µM
